B1: glmS ribozyme (parent)
chain: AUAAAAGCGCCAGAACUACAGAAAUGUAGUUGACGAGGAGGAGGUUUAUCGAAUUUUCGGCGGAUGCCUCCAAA

# Variants of: B1
# assay_notes: self-cleavage kobs at 640 uM GlcN6P; higher = faster cleavage; RNA array
# condition_summary: with glucosamine-6-phosphate
Fewer inactive variants are shown than the library holds.
quantity: self-cleavage kobs at 640 uM GlcN6P

>>> measured_value("AUAAAAGCGCCAGAACUACAGAAAUGUAGUUGCCGAGAAGGAGGUUUAUCGAAUUUUCGGCGGAUGCCUCCAAA [A33C G38A]")
"< 1e-05 s⁻¹"
>>> measured_value("AUAAAAGCGCCAGAACUACAGAAAUGUAGUUGACGAGGAGGAGCUUUAUCGAAUGUUCGGCGGAUGCCUUCAAA [G44C U55G C70U]")
"< 1e-05 s⁻¹"
>>> measured_value("AUAAAAGCGCCAGAACUACAGAAAUGUAGUUGACGAAGUGGAGGUUUAUCGAACUUUCGGCGGAUGCCUCCAAA [G37A A39U U54C]")
"0.00016 s⁻¹"
>>> measured_value("AUAAAAACGCCAGAACUACAGAAAUGUAGUUGACGAGGAGGAGGCUUAUCGAAUUUUCGGCGGAUGCCUCCAAA [G7A U45C]")
"< 1e-05 s⁻¹"
>>> measured_value("AUAAAAGCGUCAGAACUACAGAAAUGUAGUUGACGAGUAGGAGGUUUAUCGAAUUUGCGGGGGAUUCCUCCAAA [C10U G38U U57G C61G G66U]")
"0.000307 s⁻¹"
>>> measured_value("AUAAAAGCGCCAGAACUACAUAAAUGUAGUUGACGAGGAGGAGGUUUAUCGAAUUUUCGGCGGAUGCCUCCAAA [G21U]")
"0.0147 s⁻¹"
>>> measured_value("AUAAAAGCGCUAGAACUACAGAAAUGUAGUUGACGCGGGGGAGGUUUAUCGAAUUUUCGGCGGAUGGCUCCAAA [C11U A36C A39G C67G]")
"< 1e-05 s⁻¹"
>>> measured_value("AUAAAAGCGCCAGAACUACAGAAAUGUAGUUGACGAGGAGGAGGUUUAUCGAAUUUUCGGCUGAUGCGUCCAAA [G62U C68G]")
"< 1e-05 s⁻¹"
>>> measured_value("AUAAAAGCGCCGGAACUACAGAAAUGUAGUUGACGAGGAGGAGGUUUAUCGAUUUUUCGGCGGAUGCCUCCAAA [A12G A53U]")
"0.000112 s⁻¹"
>>> measured_value("AUAAAAGUGCCAGAACUACAGAAAUGUAGUUGACGAGGUGGAGGUUUAUCGAAUUUUCCGCGGAUGCCUCCAAA [C8U A39U G59C]")
"< 1e-05 s⁻¹"
>>> measured_value("AUAAAAGCGCCAGAACUACAGAAAUGUAGUUGACGAGGAAGAGGCUUAUAGAAUUUUCGACGGAUGACUCCAAA [G40A U45C C50A G60A C67A]")
"< 1e-05 s⁻¹"
>>> measured_value("AUAAAAGCUCCAGAACUACAGAAAUGUAGUUCACCAGGAGGAGGUUUAUCGAAUUUUCGGCGGGUGCCUCCAAA [G9U G32C G35C A64G]")
"< 1e-05 s⁻¹"
>>> measured_value("AUAAAAGCGCCAGAACUACAGAAAUGUAGUUGAGGAGGAGGAGGUUUAUCGAAUUUUCGGGCGAUGCCUCCAAA [C34G C61G G62C]")
"< 1e-05 s⁻¹"
>>> measured_value("AUAAAAGCGCCAGAACUACAGAAAUGUAGAUGACGAGGAGGAGGUUUAUCGAAUGUUCGGCGGAUGCCUCCAAA [U30A U55G]")
"0.00138 s⁻¹"
>>> measured_value("AUAAAAGCGCAAGAACUACAGAAAUGUAGUUGACGCGGAGGAGGUUUAUCGAAUUUUCGGCGGAUGCCUCCAAA [C11A A36C]")
"< 1e-05 s⁻¹"
>>> measured_value("AUAAAAGCGCCAGAACUACAGAAAUGUAGUUGACGGGUAGGAGGUUUAUAGAAUUUUCGGCAGAUGCCUCCAAA [A36G G38U C50A G62A]")
"< 1e-05 s⁻¹"
>>> measured_value("AUAAAAGCGCCAGAUCUACAGAAAUGUAGUUGACGAGGACGAGGUUUAUCGAAUUUUCGGCGGAUGCCUCCAAA [A15U G40C]")
"0.00011 s⁻¹"
>>> measured_value("AUAAAAGCGCCAGCACUACAGAAAUGUAGUUGACGGGGAGGAGGUUUACCGAAUUUUCGGCGGAUGCCUCCAAA [A14C A36G U49C]")
"< 1e-05 s⁻¹"
>>> measured_value("AUAAAAGCGCCUGAACUACAGAAAUGUAGUUGACGAGGAGGAGGUUUAUCGAAUUUUCGGCGGUUGCCUCCAAA [A12U A64U]")
"5.21e-05 s⁻¹"
>>> measured_value("AUAAAAGCCCCAGAACUACAGAAAUGUAGUUGACGAGGUGGCGGUUUAUCGAAUUGUCGGCGGAUGCCUCCAAA [G9C A39U A42C U56G]")
"< 1e-05 s⁻¹"
>>> measured_value("AUAAAAGCGCCAGUACUACAGAAAUGUAGUUGACGAGGAGGAGGUUUAUCGAGUUUUCGGCGGAUGCCUCCAAA [A14U A53G]")
"0.00204 s⁻¹"
>>> measured_value("AUAAAUGCGCCAGAACUACAGAAAUGUAGGUGACGAGGAGGAGUUUUAUCGACUUUUCGGCGGAUGCCUCCAAA [A6U U30G G44U A53C]")
"< 1e-05 s⁻¹"
